Molecular target: human TLR7 (Homo sapiens)
Sequence (Q9NYK1 27-1049): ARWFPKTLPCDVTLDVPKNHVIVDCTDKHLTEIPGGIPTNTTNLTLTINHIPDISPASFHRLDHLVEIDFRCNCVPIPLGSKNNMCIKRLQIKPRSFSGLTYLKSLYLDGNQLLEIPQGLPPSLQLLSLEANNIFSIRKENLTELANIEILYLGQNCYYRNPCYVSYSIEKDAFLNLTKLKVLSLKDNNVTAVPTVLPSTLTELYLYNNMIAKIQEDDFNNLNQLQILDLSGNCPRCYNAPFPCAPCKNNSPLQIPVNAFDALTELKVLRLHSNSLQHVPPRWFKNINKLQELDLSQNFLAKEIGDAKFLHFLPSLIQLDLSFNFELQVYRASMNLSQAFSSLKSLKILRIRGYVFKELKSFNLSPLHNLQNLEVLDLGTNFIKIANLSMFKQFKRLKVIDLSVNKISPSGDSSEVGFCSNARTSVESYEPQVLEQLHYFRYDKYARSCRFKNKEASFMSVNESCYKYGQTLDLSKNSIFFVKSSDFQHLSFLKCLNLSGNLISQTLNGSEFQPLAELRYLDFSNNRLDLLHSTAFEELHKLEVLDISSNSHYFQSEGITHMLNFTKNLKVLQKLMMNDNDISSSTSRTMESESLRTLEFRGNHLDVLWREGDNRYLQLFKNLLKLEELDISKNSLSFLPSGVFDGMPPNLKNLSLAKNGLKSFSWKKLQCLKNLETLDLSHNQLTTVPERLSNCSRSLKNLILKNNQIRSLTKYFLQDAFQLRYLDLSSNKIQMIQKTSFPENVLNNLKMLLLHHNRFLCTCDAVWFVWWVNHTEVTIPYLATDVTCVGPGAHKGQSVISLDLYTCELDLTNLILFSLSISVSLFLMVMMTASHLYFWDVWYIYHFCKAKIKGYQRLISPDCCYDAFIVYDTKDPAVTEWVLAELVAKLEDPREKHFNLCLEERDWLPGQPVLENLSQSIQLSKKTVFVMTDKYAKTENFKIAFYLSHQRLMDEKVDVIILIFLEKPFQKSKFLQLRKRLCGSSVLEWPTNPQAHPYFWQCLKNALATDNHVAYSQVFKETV
Test: TLR7 inhibition reporter assay (HEK-Blue cells, SEAP reporter, gardiquimod stimulation)
Settings: HEK-Blue cells overexpressing human TLR7, SEAP reporter, gardiquimod 7.5 μM
measurement kind: IC50
Note to self: number, then unit, no commentary.

Examples with their reported IC50 follow.
// returns reported IC50 for input COc1cc(-c2[nH]nc(-c3ccc(C4CN(C(C)C)C4)cc3)c2C(C)C)cn2ncnc12
4.29 nM

What about this molecule? Cc1cc(-c2[nH]nc(C(=O)NC3CCC(N(C)C)CC3)c2C(C)C)cn2ncnc12 (stereo not shown)
7.8 nM

What about this molecule? Cc1cc(-c2[nH]nc(C(=O)N[C@H]3CC[C@@H](NCC4CCOC4)CC3)c2C(C)C)cn2ncnc12 (stereo partly shown)
1.73 nM

--- query ---
// returns reported IC50 for input Cc1cc(-c2[nH]nc(-c3cnc(N4CCNCC4)nc3)c2C(C)C)cn2ncnc12
28.6 nM
